test system: SN12C; test: Growth inhibition of human SN12C cells after 48 hrs by sulforhodamine B assay; format: functional

{"STRUCTURE_NOTATION": "CC(C)=CCC/C(C)=C/CC/C(C)=C/CC[C@]1(C)CCc2c3c(c(C)c(C)c2O1)OCN(CCCCCCCCO)C3", "MEASURED_ON": "SN12C", "GI50, µM": 2.55}
{"STRUCTURE_NOTATION": "CC(C)=CCC/C(C)=C/CC/C(C)=C/CC[C@]1(C)CCc2c3c(c(C)c(C)c2O1)OCN(CCCCO)C3", "MEASURED_ON": "SN12C", "GI50, µM": 7.98}
{"STRUCTURE_NOTATION": "CC(C)=CCC/C(C)=C/CC/C(C)=C/CC[C@]1(C)CCc2c3c(cc(C)c2O1)OCN(C1CCN(Cc2ccccc2)CC1)C3", "MEASURED_ON": "SN12C", "GI50, µM": 1.46}
{"STRUCTURE_NOTATION": "CC(C)=CCC/C(C)=C/CC/C(C)=C/CC[C@]1(C)CCc2c3c(cc(C)c2O1)OCN(CCCCCCO)C3", "MEASURED_ON": "SN12C", "GI50, µM": 2.06}

====

test system: DU-145; test: Growth inhibition of human DU145 cells assessed as cell growth at 10 uM after 48 hrs by sulforhodamine B assay; assay type: functional; settings: DU-145, 48 h, read-out: Activity
Classification field: Criterion met = growth at 10 µM at or over 90%; Criterion not met = growth at 10 µM under 90%.

{"COMPOUND": "COc1ccc(CCN2COc3c(C)c(C)c4c(c3C2)CC[C@@](C)(CC/C=C(\\C)CC/C=C(\\C)CCC=C(C)C)O4)cc1OC", "CLASS_NAME": "Criterion met"}
{"COMPOUND": "CC(C)=CCC/C(C)=C/CC/C(C)=C/CC[C@]1(C)CCc2cc(O)c(C)c(C)c2O1 [GAMMA-TOCOTRIENOL]", "CLASS_NAME": "Criterion met"}
{"COMPOUND": "COc1ccc(CCNCc2c(O)c(C)c(C)c3c2CC[C@@](C)(CC/C=C(\\C)CC/C=C(\\C)CCC=C(C)C)O3)cc1OC", "CLASS_NAME": "Criterion met"}
{"COMPOUND": "CC(C)=CCC/C(C)=C/CC/C(C)=C/CC[C@]1(C)CCc2c3c(c(C)c(C)c2O1)OCN(CCc1ccc(O)cc1)C3", "CLASS_NAME": "Criterion met"}
{"COMPOUND": "CC(C)=CCC/C(C)=C/CC/C(C)=C/CC[C@]1(C)CCc2c3c(cc(C)c2O1)OCN(CCc1ccc(O)cc1)C3", "CLASS_NAME": "Criterion not met"}
{"COMPOUND": "CC(C)=CCC/C(C)=C/CC/C(C)=C/CC[C@]1(C)CCc2c3c(c(C)c(C)c2O1)OCN(CCCCCO)C3", "CLASS_NAME": "Criterion met"}
{"COMPOUND": "CC(C)=CCC/C(C)=C/CC/C(C)=C/CC[C@]1(C)CCc2c3c(c(C)c(C)c2O1)OCN(CCCCCCCCCCO)C3", "CLASS_NAME": "Criterion not met"}
{"COMPOUND": "CC(C)=CCC/C(C)=C/CC/C(C)=C/CC[C@]1(C)CCc2c3c(cc(C)c2O1)OCN(CCCCCO)C3", "CLASS_NAME": "Criterion not met"}
{"COMPOUND": "CC(C)=CCC/C(C)=C/CC/C(C)=C/CC[C@]1(C)CCc2c3c(cc(C)c2O1)OCN(CCCO)C3", "CLASS_NAME": "Criterion not met"}
{"COMPOUND": "CC(C)=CCC/C(C)=C/CC/C(C)=C/CC[C@]1(C)CCc2c3c(cc(C)c2O1)OCN(CCCCCCCCCCO)C3", "CLASS_NAME": "Criterion met"}
{"COMPOUND": "CC(C)=CCC/C(C)=C/CC/C(C)=C/CC[C@]1(C)CCc2c3c(cc(C)c2O1)OCN(CCCCCCO)C3", "CLASS_NAME": "Criterion not met"}
{"COMPOUND": "CC(C)=CCC/C(C)=C/CC/C(C)=C/CC[C@]1(C)CCc2c(CNCCc3ccc(O)cc3)c(O)c(C)c(C)c2O1", "CLASS_NAME": "Criterion met"}
{"COMPOUND": "CC(C)=CCC/C(C)=C/CC/C(C)=C/CC[C@]1(C)CCc2c3c(c(C)c(C)c2O1)OCN(CCCCCCO)C3", "CLASS_NAME": "Criterion not met"}
{"COMPOUND": "CC(C)=CCC/C(C)=C/CC/C(C)=C/CC[C@]1(C)CCc2c3c(c(C)c(C)c2O1)OCN(CCCCCCCCO)C3", "CLASS_NAME": "Criterion not met"}
{"COMPOUND": "CC(C)=CCC/C(C)=C/CC/C(C)=C/CC[C@]1(C)CCc2c3c(c(C)c(C)c2O1)OCN(CCCCCCCCCCCCO)C3", "CLASS_NAME": "Criterion met"}
{"COMPOUND": "CC(C)=CCC/C(C)=C/CC/C(C)=C/CC[C@]1(C)CCc2c3c(cc(C)c2O1)OCN(C1CCN(Cc2ccccc2)CC1)C3", "CLASS_NAME": "Criterion not met"}
{"COMPOUND": "CC(C)=CCC/C(C)=C/CC/C(C)=C/CC[C@]1(C)CCc2c3c(cc(C)c2O1)OCN(CCCCCCCCCCCCO)C3", "CLASS_NAME": "Criterion not met"}
{"COMPOUND": "CC(C)=CCC/C(C)=C/CC/C(C)=C/CC[C@]1(C)CCc2c3c(cc(C)c2O1)OCN(CCCCO)C3", "CLASS_NAME": "Criterion not met"}
{"COMPOUND": "COc1ccc(CCN2COc3cc(C)c4c(c3C2)CC[C@@](C)(CC/C=C(\\C)CC/C=C(\\C)CCC=C(C)C)O4)cc1OC", "CLASS_NAME": "Criterion not met"}
{"COMPOUND": "CC(C)=CCC/C(C)=C/CC/C(C)=C/CC[C@]1(C)CCc2c3c(cc(C)c2O1)OCN(CCCCCCCCO)C3", "CLASS_NAME": "Criterion not met"}
